# System tested: Mushroom Tyrosinase (mushroom)
# Test name: cell-based or functional assay
Result type: % INHIBITION TYROSINASE (%)

>>> test_result("ISLLDAQS (HELM PEPTIDE1{[CCCCCCCCCCCCCCCC(=O)[*:2]].I.S.L.L.D.[dA].Q.S.[am]}$$$$V2.0; SMILES CCCCCCCCCCCCCCCC(=O)N[C@H](C(=O)N[C@@H](CO)C(=O)N[C@@H](CC(C)C)C(=O)N[C@@H](CC(C)C)C(=O)N[C@@H](CC(=O)O)C(=O)N[C@H](C)C(=O)N[C@@H](CCC(N)=O)C(=O)N[C@@H](CO)C(N)=O)[C@@H](C)CC) [Palm-Ile-Ser-Leu-Leu-Asp-(d)Ala-Gln-Ser-NH2]")
42
>>> test_result("ISLLDAQS (HELM PEPTIDE1{[CCCCCCCCCCCCCCCC(=O)[*:2]].I.S.L.L.D.A.Q.S.[am]}$$$$V2.0; SMILES CCCCCCCCCCCCCCCC(=O)N[C@H](C(=O)N[C@@H](CO)C(=O)N[C@@H](CC(C)C)C(=O)N[C@@H](CC(C)C)C(=O)N[C@@H](CC(=O)O)C(=O)N[C@@H](C)C(=O)N[C@@H](CCC(N)=O)C(=O)N[C@@H](CO)C(N)=O)[C@@H](C)CC) [Palm-Ile-Ser-Leu-Leu-Asp-Ala-Gln-Ser-NH2]")
39
>>> test_result("Ac-ISLLDAQS-NH2 [Ac-Ile-Ser-Leu-Leu-Asp-Ala-Gln-Ser-NH2]")
28
>>> test_result("ISLLDAQS (HELM PEPTIDE1{[ac].I.S.[dL].L.D.[dA].Q.S.[am]}$$$$V2.0; SMILES CC[C@H](C)[C@H](NC(C)=O)C(=O)N[C@@H](CO)C(=O)N[C@H](CC(C)C)C(=O)N[C@@H](CC(C)C)C(=O)N[C@@H](CC(=O)O)C(=O)N[C@H](C)C(=O)N[C@@H](CCC(N)=O)C(=O)N[C@@H](CO)C(N)=O) [Ac-Ile-Ser-(d)Leu-Leu-Asp-(d)Ala-Gln-Ser-NH2]")
40
